Each entry below carries its reported melting point.

molecule | melting point
O=C(O)Cn1cc(C2CCCN(S(=O)(=O)c3ccc(F)cc3)C2)c2ccccc21 (stereo not drawn) | 189 to 194 °C (dec.)
O=C(O)Cn1cc(C2=CCCN(S(=O)(=O)c3ccc(F)cc3)C2)c2ccccc21 | 142 to 143 °C
CN(c1ccc2c(c1)c1c(n2CC(=O)O)CCSC1)S(=O)(=O)c1ccc(F)cc1 | 214 to 217 °C
O=C(O)Cn1c2ccccc2c2cc(NS(=O)(=O)c3ccc(F)cc3)ccc21 | 139 to 141 °C
O=C(O)Cn1c2c(c3cc(NS(=O)(=O)c4ccc(F)cc4)ccc31)CCCCC2 | 209 to 211 °C
CN(c1ccc2c(c1)c1c(n2CC(=O)O)CCCCC1)S(=O)(=O)c1ccc(O)cc1 | 186 to 189 °C
CC1CCc2c(c3cc(N(C)S(=O)(=O)c4ccc(F)cc4)ccc3n2CC(=O)O)C1 (stereo not drawn) | 100 to 101 °C
CC1CCc2c(c3cc(N(Cc4ccccc4)S(=O)(=O)c4ccc(F)cc4)ccc3n2CC(=O)O)C1 (stereo not drawn) | 176 to 178 °C
O=C(O)Cn1cc(C(CNS(=O)(=O)c2ccc(F)cc2)c2ccccc2)c2ccccc21 (stereo not drawn) | 117 to 120 °C
O=C(O)Cn1c2c(c3cc(NS(=O)(=O)c4ccc(F)cc4)ccc31)CCCCCC2 | 193 to 197 °C
O=C(O)Cn1c2c(c3cc(N(Cc4ccccc4)S(=O)(=O)c4ccc(F)cc4)ccc31)CCCC2 | 198 to 202 °C
Cc1c(C)n(CC(=O)O)c2ccc(N(C)S(=O)(=O)c3ccc(F)cc3)cc12 | 165 to 179 °C
COc1ccc(CN(CCc2cn(CC(=O)O)c3ccccc23)S(=O)(=O)c2ccc(F)cc2)cc1 | 108 to 110 °C
O=C(O)Cn1cc(C2CCN(S(=O)(=O)c3ccc(F)cc3)C2)c2ccccc21 (stereo not drawn) | 155 to 156 °C
CCc1c(C)n(CC(=O)O)c2ccc(NS(=O)(=O)c3ccc(F)cc3)cc12 | 172 to 178 °C
CN(C1CCc2c(c3ccccc3n2CC(=O)O)C1)S(=O)(=O)c1ccc(Cc2ccccc2)s1 (stereo not drawn) | 138 to 140 °C
COc1ccc(S(=O)(=O)N(C)c2ccc3c(c2)c2c(n3CC(=O)O)CCCCC2)cc1 | 144 to 150 °C
CN(c1ccc2c(c1)c1ccccc1n2CC(=O)O)S(=O)(=O)c1ccc(F)cc1 | 188 to 191 °C

Measured values drawn from patent US7534897B2 for this set.
